Recorded pStat3 HTRF IC50, one value per entry.
subject.of.test: T1, IL-23R on DB cells (human, UniProt Q5VWK5 24-629)
T1 sequence (looked up): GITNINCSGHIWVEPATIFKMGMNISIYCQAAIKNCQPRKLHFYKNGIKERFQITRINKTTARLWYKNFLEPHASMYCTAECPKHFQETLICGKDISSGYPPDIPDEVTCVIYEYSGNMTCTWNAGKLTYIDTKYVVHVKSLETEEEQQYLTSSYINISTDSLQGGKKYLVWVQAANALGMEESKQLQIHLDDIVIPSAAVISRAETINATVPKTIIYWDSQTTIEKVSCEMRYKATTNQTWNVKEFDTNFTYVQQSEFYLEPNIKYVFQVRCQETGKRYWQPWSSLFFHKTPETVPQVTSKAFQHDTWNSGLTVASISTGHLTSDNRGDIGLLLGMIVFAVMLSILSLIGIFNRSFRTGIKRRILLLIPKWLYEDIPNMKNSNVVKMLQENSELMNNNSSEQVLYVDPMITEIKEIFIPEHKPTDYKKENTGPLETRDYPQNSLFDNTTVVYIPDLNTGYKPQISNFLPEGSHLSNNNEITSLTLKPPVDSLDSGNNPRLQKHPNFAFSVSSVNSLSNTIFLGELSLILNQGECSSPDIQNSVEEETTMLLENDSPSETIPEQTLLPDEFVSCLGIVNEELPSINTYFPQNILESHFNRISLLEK
assay.name: cell-based or functional assay

- binder: "XNTWQXFXXKNN (Ac; Pen-Pen disulfide; Phe(4-CONH2); 2-Nal; Achc; NH2; DIG linker joins the two subunits) [[Ac-[Pen]-NTWQ-[Pen]-[Phe(4-CONH2)]-[2-Nal]-[Achc]-KNN-NH2]2DIG]"
  recorded.result: "< 10 nM"
- binder: "XNTWQXFXXKNN (Ac; Pen-Pen disulfide; Phe(4-CONH2); 2-Nal; 4-amino-4-carboxy-tetrahydropyran; NH2; DIG linker joins the two subunits) [[Ac-[Pen]-NTWQ-[Pen]-[Phe(4-CONH2)]-[2-Nal]-[4-amino-4-carboxy-tetrahydropyran]-KNN-NH2]2DIG]"
  recorded.result: "< 10 nM"
- binder: "XNTWQXFXXKNN (Ac; Pen-Pen disulfide; Phe(4-OMe); 2-Nal; Aib; NH2; DIG linker joins the two subunits) [[Ac-[Pen]-NTWQ-[Pen]-[Phe(4-OMe)]-[2-Nal]-[Aib]-KNN-NH2]2DIG]"
  recorded.result: "< 10 nM"
- binder: "XNTWQXFXXKNN (Ac; Pen-Pen disulfide; Phe(4-OMe); 2-Nal; 4-amino-4-carboxy-tetrahydropyran; NH2; DIG linker joins the two subunits) [[Ac-[Pen]-NTWQ-[Pen]-[Phe(4-OMe)]-[2-Nal]-[4-amino-4-carboxy-tetrahydropyran]-KNN-NH2]2DIG]"
  recorded.result: "< 10 nM"
- binder: "XNTWQXFXXKNN (Ac; Pen-Pen disulfide; Phe(4-OMe); 2-Nal; Acvc; NH2; DIG linker joins the two subunits) [[Ac-[Pen]-NTWQ-[Pen]-[Phe(4-OMe)]-[2-Nal]-[Acvc]-KNN-NH2]2DIG]"
  recorded.result: "< 10 nM"
- binder: "XNTWQXFXLKNN (Ac; Pen-Pen disulfide; Phe(4-OMe); 2-Nal; α-MeLeu; NH2; DIG linker joins the two subunits) [[Ac-[Pen]-NTWQ-[Pen]-[Phe(4-OMe)]-[2-Nal]-[α-MeLeu]-KNN-NH2]2DIG]"
  recorded.result: "< 10 nM"

q: Dear colleague, I am looking for the recorded pStat3 HTRF IC50 of the following binder: XNTWQXFXLKNN (Ac; Pen-Pen disulfide; Phe(4-CONH2); 2-Nal; α-MeLeu; NH2; DIG linker joins the two subunits) [[Ac-[Pen]-NTWQ-[Pen]-[Phe(4-CONH2)]-[2-Nal]-[α-MeLeu]-KNN-NH2]2DIG]
a: < 10 nM

q: # get_value(readout='pStat3 HTRF IC50', item= XNTWQXFXXKNN (Ac; Pen-Pen disulfide; Phe(4-CONH2); 2-Nal; Aib; NH2; DIG linker joins the two subunits) [[Ac-[Pen]-NTWQ-[Pen]-[Phe(4-CONH2)]-[2-Nal]-[Aib]-KNN-NH2]2DIG] )
a: < 10 nM
